Tested on: Staphylococcus epidermidis
assay-comment: Antibacterial activity against methicillin-sensitive dfrA, dfrD-negative Staphylococcus epidermidis harboring F98Y mutation in dfrC gene
Assay type: functional
Catalogue of MIC readings, one per entry.
observable: MIC (µg/mL)

COc1ncc(C2c3ccccc3C=NN2C(=O)/C=C/c2cc(Cc3cnc(N)nc3N)cc(OC)c2OC)cn1 (centres undefined)
0.5
COc1cc(Cc2cnc(N)nc2N)cc(/C=C/C(=O)N2N=Cc3ccccc3C2c2cnc(N3CCOCC3)nc2)c1OC (centres undefined)
1
COc1cc(Cc2cnc(N)nc2N)cc(/C=C/C(=O)N2N=Cc3ccccc3C2c2cnc(N(C)C)nc2)c1OC (centres undefined)
1

FYI, the data here is from ChEMBL document CHEMBL1671659.
